Assay: Microsomal stability (Rat)
Assay type: in vitro ADME
Settings: after 60 minutes
Hi! Just check whether Microsomal (Rat): percent of compound remaining is below 10%. Below gives MET, equal or above gives NOT MET.

Sample answers from the record:
> print(dat)
                                   molecule  label.value
1  CC(C)(C)OC(=O)N1CCCC12CCCNC2=O (single isomer, unassigned) [EV-1]      NOT MET
2  O=C1NCC=CCC12CCCN2Cc1ccc(F)cc1 (single isomer, unassigned) [GJ-1]      NOT MET
3  O=C1NCC=CCC12CCCN2Cc1ccccc1 (single isomer, unassigned) [GP-2]          MET

Query: Regarding O=C1NCC=CC[C@]12CCCN2 [GA, (R)-1,7-diazaspiro[4.6]undec-9-en-6-one] , kindly confirm whether its Microsomal (Rat): percent of compound remaining is beneath 10%.
Response: NOT MET

Query: Given the entry NC(=O)CN1CCCC12CC=CCNC2=O (single isomer, unassigned) [GQ-2] , would its reported Microsomal (Rat): percent of compound remaining be below 10%?
Response: NOT MET

Query: Please let me know if CC(C)C(=O)N1CCC2(CCCN2C(=O)C(C)C)C1=O (single isomer, unassigned) shows Microsomal (Rat): percent of compound remaining below 10%.
Response: NOT MET

Query: Is it true that Microsomal (Rat): percent of compound remaining reported for O=C1NCCCC12CCCCN2 (single isomer, unassigned) [AY, 1,8-diazaspiro[5.5]undecan-7-one] is less than 10%?
Response: NOT MET

Query: Dear colleague, could you confirm whether Microsomal (Rat): percent of compound remaining of CN1CC=CCC2(CCCN2Cc2ccccc2)C1=O (single isomer, unassigned) falls below 10%? Thanks.
Response: MET

---

Experiment: Plasma stability (Rat)
Format: in vitro ADME
Details: after 60 minutes
metric name: Plasma (Rat): percent of compound remaining (%)
Note: unit % is implicit; provide only the numeric part.

> print(dat)
                                   molecule  recorded.measurement
1  CC(C)C(=O)N1CCCC12CC=CCNC2=O (single isomer, unassigned)                   102

Query: Fill in: Plasma (Rat): percent of compound remaining of O=C1NCCCC[C@]12CCCN2 [AU-1, (S)-1,7-diazaspiro[4.6]undecan-6-one] is ___
Response: 100

Query: What value of Plasma (Rat): percent of compound remaining has been recorded for this entry: CN1CCCC12CC=CCNC2=O (single isomer, unassigned) [GC-1]
Response: 89

Query: Plasma (Rat): percent of compound remaining lookup needed for O=C1N(Cc2ccc(F)cc2)CC=CCC12CCCN2 (single isomer, unassigned) , thanks.
Response: 97

Query: Name the recorded Plasma (Rat): percent of compound remaining for O=C1NCC=CCC12CCCN2Cc1ccc(F)cc1 (single isomer, unassigned) [GJ-1] .
Response: 100

Query: Which Plasma (Rat): percent of compound remaining value belongs to CC(C)CN1CCCC12CC=CCNC2=O (single isomer, unassigned) [GI-2] ?
Response: 104

---

Assay: IV pharmacokinetics in Sprague Dawley rats
Assay type: in vivo
Conditions: Sprague-Dawley, rat, in vivo, iv, 2 mg/kg, normal saline
Could you please mark Y for values of clearance below 30 mL/min/kg and N for values at or above it?

Use these answered entries as a reference point.
> print(dat)
                                   molecule  label.value
1  O=C1NCCCC12CCCN2 (stereo not shown) [EU-2, 1,7-diazaspiro[4.5]decan-6-one]            Y
2  O=C1NCCCC[C@]12CCCN2 [AU-1, (S)-1,7-diazaspiro[4.6]undecan-6-one]            Y
3  O=C1NCCCC12CCCCN2 (single isomer, unassigned) [AX, 1,8-diazaspiro[5.5]undecan-7-one]            Y
4  CN1CCCC12CC=CCNC2=O (single isomer, unassigned)            N
5  CC(C)CN1CCCC12CC=CCNC2=O (single isomer, unassigned)            N

Query: Answer whether the molecule O=C1NCC=CCC12CC(F)(F)CN2 (single isomer, unassigned) has clearance strictly less than 30 mL/min/kg
Response: Y

Query: Does the reported clearance of O=C1NCCCCC12CCCCN2 (single isomer, unassigned) [AZ, 1,8-diazaspiro[5.6]dodecan-7-one] stay below 30 mL/min/kg?
Response: Y

Query: Determine if CC(C)(C)OC(=O)N1CCCC12CCCNC2=O (single isomer, unassigned) shows clearance strictly lower than 30 mL/min/kg.
Response: Y

Query: Consider the molecule CC(C)C(=O)N1CCCC12CC=CCNC2=O (single isomer, unassigned) . Is its clearance strictly less than 30 mL/min/kg?
Response: Y

Query: Check if clearance falls below 30 mL/min/kg for NC(=O)CN1CCCC12CC=CCNC2=O (single isomer, unassigned) .
Response: Y

Query: Would you kindly verify if clearance of O=C1NCC=CC[C@]12CCCN2 [GA, (R)-1,7-diazaspiro[4.6]undec-9-en-6-one] is strictly less than 30 mL/min/kg?
Response: Y

Query: Answer whether the molecule CC(=O)N1CCCC12CC=CCNC2=O (single isomer, unassigned) has clearance strictly less than 30 mL/min/kg
Response: Y

Query: Is the reported clearance for O=C1N(Cc2ccc(F)cc2)CC=CCC12CCCN2 (single isomer, unassigned) strictly below 30 mL/min/kg?
Response: N

Query: Strictly below 30 mL/min/kg in clearance? CN1CC=CCC2(CCCN2Cc2ccccc2)C1=O (single isomer, unassigned)
Response: N
